biological target: human Kv1.3 (Homo sapiens); construct: expressed in transfected cells; host or cells: stably transfected cells grown in medium for CHO cells; assay: Kv1.3 Autopatch Electrophysiology (whole cell patch-clamp, stably transfected CHO cells); assay type: cell-based; conditions: CHO, compound 1 μM, step to +30 mV for 500 ms, inhibition of total charge relative to control, room temperature, read-out: hKv1.3 % inh.
Sequence (P22001 whole entry): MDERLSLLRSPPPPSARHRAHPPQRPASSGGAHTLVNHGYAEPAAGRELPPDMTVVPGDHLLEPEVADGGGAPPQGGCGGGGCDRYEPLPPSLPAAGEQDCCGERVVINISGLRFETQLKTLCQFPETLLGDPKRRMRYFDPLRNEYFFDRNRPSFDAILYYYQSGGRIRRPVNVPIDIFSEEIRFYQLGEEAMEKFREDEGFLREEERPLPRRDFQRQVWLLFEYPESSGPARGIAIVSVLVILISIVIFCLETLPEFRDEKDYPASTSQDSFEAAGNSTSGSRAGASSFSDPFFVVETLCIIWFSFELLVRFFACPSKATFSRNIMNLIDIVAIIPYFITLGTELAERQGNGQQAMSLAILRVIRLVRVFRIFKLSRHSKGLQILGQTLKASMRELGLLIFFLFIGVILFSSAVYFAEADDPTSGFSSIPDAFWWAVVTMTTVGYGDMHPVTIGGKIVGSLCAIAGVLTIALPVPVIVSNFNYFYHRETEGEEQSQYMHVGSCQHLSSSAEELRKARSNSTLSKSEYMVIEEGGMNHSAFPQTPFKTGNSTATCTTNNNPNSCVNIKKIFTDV
measure_name: inhibition at 1 µM (%)
Numbers only, in %.

// known answers, use as guide
[in] Entry O=S(=O)(c1ccccc1)N(Cc1ccccc1)c1cccc(N2CCOCC2)c1 has what inhibition at 1 µM?
[out] 76

[in] Return reported inhibition at 1 µM; argument: Cc1nc(S(=O)(=O)N(Cc2ccccc2)c2cccc(N3CCOCC3)c2)cn1C
[out] 75

[in] Look at this compound and give its reported inhibition at 1 µM. Cn1cnc(S(=O)(=O)N(Cc2ccc(Cl)cc2)c2ccc(F)c(N3CCCC3=O)c2)c1
[out] 61

[in] Fill in the blank: the reported inhibition at 1 µM of O=S(=O)(c1ccccc1)N(Cc1ccccc1)c1cccc(N2CCN(c3ccccc3)CC2)c1 is ____.
[out] 88

[in] I am curious: what inhibition at 1 µM value has been reported for Cn1ccc(S(=O)(=O)N(Cc2ccccc2)c2cccc(N3CCNC3=O)c2)n1 ?
[out] 72

[in] # input compound: CNC(=O)COc1cccc(N(Cc2ccc(Cl)cc2)S(=O)(=O)c2ccn(C)n2)c1 ; wanted: its inhibition at 1 µM
[out] 99

[in] State the recorded inhibition at 1 µM for this entry: Cn1cncc1C(=O)Nc1cccc(N(Cc2ccccc2)S(=O)(=O)c2ccccc2)c1
[out] 90

[in] Give its inhibition at 1 µM value. Item: O=S(=O)(c1ccccc1)N(Cc1ccccc1)c1cccc(N2CCNC(c3ccccc3)C2)c1 (stereo not shown)
[out] 94

Your task in this section: give inhibition at 1 µM for each listed record.
1. Cn1ccc(S(=O)(=O)N(Cc2ccc(Cl)cc2)c2cccc(OCC(=O)NC3CCC3)c2)n1
2. O=C1NCCN1c1cccc(N(Cc2ccccc2)S(=O)(=O)c2ccccc2)c1
3. O=C1NCCN1c1cccc(N(Cc2ccc(Cl)cc2)S(=O)(=O)c2ccccc2)c1
4. Cn1ccc(S(=O)(=O)N(Cc2ccc(Cl)cc2)c2cccc(OCC(=O)Nc3ccccn3)c2)n1
5. COCC(=O)Nc1cccc(N(Cc2ccccc2)S(=O)(=O)c2ccccc2)c1

[out]
94
86
100
95
85
